test: Clearance in Sprague-Dawley rat at 5 mg/kg, po or 2 mg/kg, iv; type: ADME, organism-based; details: in vivo
endpoint: clearance (mL/min/kg)
State the answer as a number, implicitly in mL/min/kg.

Data request: Entry under review: COC(=O)N[C@H](C(=O)N1CCC[C@H]1c1ncc(-c2cc(F)c3c(c2)O[C@@H](c2ccccc2)n2c-3cc3cc(-c4cnc([C@@H]5CCCN5C(=O)[C@@H](NC(=O)OC)C(C)C)[nH]4)ccc32)[nH]1)C(C)C . Reported clearance?
Data returned: 11

====

Measured bioavailability, listed per entry for reference.
test: Oral bioavailability in Sprague-Dawley rat at 10 mg/kg; type: ADME, organism-based; conditions: in vivo

compound: COC(=O)N[C@H](C(=O)N1CCC[C@H]1c1ncc(-c2cc(F)c3c(c2)OC(c2cccc(OC)c2)n2c-3cc3cc(-c4cnc([C@@H]5CCCN5C(=O)[C@@H](NC(=O)OC)C(C)C)[nH]4)ccc32)[nH]1)C(C)C (some centres not stated)
bioavailability: 12%

Attention now shifts to the item below.
Data request: Entry under review: COC(=O)N[C@H](C(=O)N1CCC[C@H]1c1ncc(-c2cc(F)c3c(c2)OC(c2cc(Cl)cc(OC)c2)n2c-3cc3cc(-c4cnc([C@@H]5CCCN5C(=O)[C@@H](NC(=O)OC)C(C)C)[nH]4)ccc32)[nH]1)C(C)C (some centres not stated) . Reported bioavailability?
Data returned: 3%
